Biological target: Cytochrome P450 2C19 (Homo sapiens)
Test: Cytochrome P450 Family 2 Subfamily C Member 19 (CYP2C19) small molecule antagonists: luciferase reporter qHTS assay (AID 1671197); also: nearly all actives have a fitted effect of over 65% in size; also: potency is read from the fitted curve at half-maximal effect
Settings: P450-Glo CYP2C19 enzyme, luciferin luminescence, 1 h; series mostly up to 115 µM
Results filed as inconclusive are left out. Activity calls are given as the source filed them. Calls follow the shape of the dose curve; as a rule, active = well fitted inhibition curve with a large enough effect in the repeat runs; inconclusive = weak or mixed curves; inactive = no such curve, though single readings can be large or run the other way.
recorded-endpoint: Potency

>>> value_measured("C1COCCO1")
"36.4 µM (active)"
>>> value_measured("C=C(C)[C@@H]1CCC2=CC(=O)C[C@@H](C)[C@]2(C)C1")
"6.33 µM (active)"
>>> value_measured("C#CC(O)C(CC)CCCC (stereo not drawn)")
"71 µM (active)"
>>> value_measured("CC12CCC(CC1=O)C2(C)C (stereo not drawn)")
"inactive"
>>> value_measured("O=C(O)c1ccccc1S")
"inactive"
>>> value_measured("Cc1ccccc1Br")
"79.1 µM (active)"
>>> value_measured("COCc1ccc(COC)cc1")
"inactive"
>>> value_measured("CC1(C)SC(C)(C)SC(C)(C)S1")
"inactive"

----------
Assay: qHTS assay for identifying genotoxic compounds that show differential cytotoxicity against isogenic chicken DT40 cell lines with known DNA damage response pathways - Rad54/Ku70 mutant cell line (AID 743015); also: nearly all actives have a fitted effect of over 60% in size
Settings: DT40 Rad54/Ku70 mutant viability, CellTiter-Glo, 40 h; series mostly up to 66.8 µM
Results filed as inconclusive are left out. Active and inactive are the calls of the source. The call rests on the fitted dose curve; in most records, active means well fitted cell-killing curve with a large enough effect in the repeat runs; inconclusive means weak or mixed curves; inactive means no such curve, though single readings can be large or run the other way.
Possible outcomes: active, inactive

>>> discrete_label("CC1CCN(CCCC(=O)c2ccc(F)cc2)CC1")
"active"
>>> discrete_label("CC(C)c1cccc(O)c1")
"inactive"
>>> discrete_label("c1ccc(SCCSc2ccccc2)cc1")
"inactive"
>>> discrete_label("Cc1c(C)n(CCN(C)C)c2ccc(C(=O)OCCN(C)C)cc12")
"active"
>>> discrete_label("CCCCc1ccc2cccc(S(=O)(=O)O)c2c1")
"inactive"
>>> discrete_label("COCc1ccc(COC)cc1")
"inactive"
>>> discrete_label("CC(C)(O)Cc1ccccc1")
"inactive"
>>> discrete_label("C#CC(O)CCCCC (stereo not drawn)")
"inactive"

----------
Experiment: qHTS RealTime-Glo MT Cell Viability Assay in HepG2 cells - 32 hour (AID 1224877); also: % is scaled to controls: 0 for no effect and ±100 for the full control effect; nearly all actives have a fitted effect of over 55% in size
Settings: RealTime-Glo luminescence; series mostly up to 76.8 µM
Results filed as inconclusive are left out. Active and inactive are the calls of the source. Calls come from the whole dose curve; as a rule, active = well fitted cell-killing curve with a large enough effect in the repeat runs; inconclusive = weak or mixed curves; inactive = flat fitted curve, though single readings scatter.
recorded-endpoint: activity change, negative = cytotoxic

>>> value_measured("Cc1nc(-c2ccc(OCC(C)C)c(C#N)c2)sc1C(=O)O")
"inactive"
>>> value_measured("CC(C=O)Cc1ccc(C(C)C)cc1 (centres undefined)")
"inactive"
>>> value_measured("CC1(C)SC(C)(C)SC(C)(C)S1")
"inactive"
>>> value_measured("Cc1c(F)cc2c(=O)c(C(=O)O)cn3c2c1CCC3C (centres undefined)")
"inactive"
>>> value_measured("Nc1ncnc2c1ncn2Cc1c(F)cccc1Cl")
"inactive"
>>> value_measured("COc1ccc2cc(C=O)ccc2c1")
"inactive"
>>> value_measured("C#CC(C)(O)CC(C)C (centres undefined)")
"inactive"
>>> value_measured("CNC(=O)c1c(I)c(NC(=O)CCCCC(=O)Nc2c(I)c(C(=O)O)c(I)c(C(=O)NC)c2I)c(I)c(C(=O)O)c1I")
"inactive"
>>> value_measured("NC(=O)CCCCC1CCSS1 (centres undefined)")
"inactive"
>>> value_measured("COc1cc(C(=O)N2CCOCC2)cc(OC)c1OC")
"inactive"
>>> value_measured("CCCCCCC(CCCCCCCCCCC(=O)OCC(COC(C)=O)OC(C)=O)OC(C)=O (centres undefined)")
"inactive"
>>> value_measured("C#CC(O)CCCCC (centres undefined)")
"inactive"
>>> value_measured("CSc1ccc(C=O)cc1")
"inactive"
>>> value_measured("C=C[Si](OC)(OC)OC")
"inactive"
>>> value_measured("CN(C)N=Nc1ccccc1")
"inactive"
>>> value_measured("CCCCCCCCCCCCCCCCCCOCC(O)CO (centres undefined)")
"inactive"
>>> value_measured("COC(=O)CCCCCCCCC(=O)OC")
"inactive"
>>> value_measured("Cn1ccc2cc3c(cc21)CCN3C(=O)Nc1cccnc1")
"-1.69% [at 15.8 µM] (inactive)"
>>> value_measured("Oc1ccc2c(c1)OC[C@@H](N1CCC(O)(c3ccc(F)cc3)CC1)[C@H]2O")
"inactive"
>>> value_measured("CC(C)CCOC(=O)CC(C)C")
"inactive"
>>> value_measured("NCC[C@H](O)C(=O)N[C@@H]1C[C@H](N)[C@@H](O[C@H]2O[C@H](CN)[C@@H](O)[C@H](O)[C@H]2O)[C@H](O)[C@H]1O[C@H]1O[C@H](CO)[C@@H](O)[C@H](N)[C@H]1O")
"-1.54% [at 0.29 µM] (inactive)"
>>> value_measured("OC1OC[C@@H](O)[C@H](O)[C@H]1O (some centres undefined)")
"inactive"
>>> value_measured("C=CCSCC1Nc2cc(Cl)c(S(N)(=O)=O)cc2S(=O)(=O)N1 (centres undefined)")
"inactive"
>>> value_measured("CCCCCCOC(=O)c1ccccc1O")
"inactive"
>>> value_measured("C=CC(=O)N1CCOCC1")
"inactive"
>>> value_measured("NCCN1CCNC1=O")
"inactive"
>>> value_measured("C=CCOCC(O)CS(=O)(=O)O (centres undefined)")
"inactive"
>>> value_measured("CC(=O)OC(C)(C)C")
"inactive"
>>> value_measured("Cc1cc(C)c(NC(=O)CN(CC(=O)O)CC(=O)O)c(C)c1Br")
"inactive"
>>> value_measured("OCc1ccccn1")
"inactive"
>>> value_measured("COC(=O)CCCC(=O)O")
"inactive"
>>> value_measured("FC(F)(F)C(F)(F)C(F)(F)C(F)(F)C(F)(F)C(F)(F)C(F)(F)C(F)(F)C(F)(F)C(F)(F)F")
"-2.37% [at 6.97 µM] (inactive)"
>>> value_measured("CN(C)CCOC(c1ccc(Cl)cc1)c1ccccn1 (centres undefined)")
"inactive"
>>> value_measured("CCCC(=O)O[C@]1(C(=O)CCl)[C@@H](C)C[C@H]2[C@@H]3CCC4=CC(=O)C=C[C@]4(C)[C@@]3(F)C(=O)C[C@@]21C")
"inactive"
>>> value_measured("CO[Si](CCCNCCC[Si](OC)(OC)OC)(OC)OC")
"inactive"
>>> value_measured("CCC(=O)/C=C/c1ccc(OC)cc1")
"inactive"
>>> value_measured("CCCCNc1ccccc1")
"inactive"
>>> value_measured("O=Cc1ccccc1[N+](=O)[O-]")
"inactive"
>>> value_measured("CC1=CC(=O)CCC1")
"inactive"
>>> value_measured("Cc1nccn1CC1CCc2c(c3ccccc3n2C)C1=O (centres undefined)")
"inactive"
>>> value_measured("NC1CCN(c2cccc(Cl)n2)CC1")
"inactive"
>>> value_measured("NC(=O)Nc1nc2ccccc2[nH]1")
"inactive"
>>> value_measured("O=S(=O)(O)c1ccccc1O")
"inactive"
>>> value_measured("[O-][N+](=Nc1ccccc1)c1ccccc1")
"inactive"
>>> value_measured("O=C(O)Cc1cc(I)c(Oc2cc(I)c(O)c(I)c2)c(I)c1")
"inactive"
>>> value_measured("CCCCCCOC(=O)CC(CC(=O)OCCCCCC)(OC(=O)CCC)C(=O)OCCCCCC")
"inactive"
>>> value_measured("CCCc1ccccc1O")
"inactive"
>>> value_measured("COc1cc(O)cc(O)c1")
"inactive"
>>> value_measured("O=C1C(CCS(=O)c2ccccc2)C(=O)N(c2ccccc2)N1c1ccccc1 (centres undefined)")
"inactive"
>>> value_measured("Cc1ccccc1Br")
"inactive"
>>> value_measured("CCCCCCCCCCC1CO1 (centres undefined)")
"inactive"
>>> value_measured("C=CCn1c(=O)n([C@@H]2O[C@H](CO)[C@@H](O)[C@H]2O)c2nc(N)[nH]c(=O)c21")
"inactive"
>>> value_measured("Fc1ccccc1-c1ccccc1")
"inactive"
>>> value_measured("CCN1CCCC1CNC(=O)c1cc(S(N)(=O)=O)ccc1OC (centres undefined)")
"inactive"
